System: 60 tumor cell lines
Flag rule - GI50 less than 9 µM flags True; the remaining entries get False.

Below are worked cases with known answers.
COc1cc2c(ccc3c4cc(OC)c(OC)cc4c[n+](C)c23)cc1O [Fagaronine, reference compound]
False
Nc1cc2c(c3cnccc13)N(c1cccc(Br)c1)Cc1cnccc1-2
True
O=C1CC2=C(c3cnccc31)N(c1cccc(Br)c1)Cc1cnccc12
True
Nc1cc2c(c3cnccc13)N(c1ccc(Cl)c(Cl)c1)Cc1cnccc1-2
True
Nc1cc2c(c3cnccc13)NCc1cnccc1-2
True

With those in mind, consider the next compound.
input: Answer whether the compound Nc1cc2c(c3cnccc13)N(c1cccc(Cl)c1)Cc1cnccc1-2 has GI50 strictly less than 9 µM
output: True

---

System: RPMI-8226
assayRemarks: NCI in vitro anti-tumor screening, 1 μM, SRB
Type: cell-based, human
conditionNotes: c = 1 μM; RPMI-8226 (Leukemia); two days
measurementType: Percentage cell growth (%)
I only need the number, in %, no unit after it.

For orientation, consider the following solved cases.
COc1cccc(-c2cc3ccncc3c3nc(N)c4cnccc4c23)c1OC
96.8
COc1cc(-c2cc3ccncc3c3nc(N)c4cnccc4c23)cc(OC)c1OC
33.5
Nc1nc2c3cnccc3cc(-c3ccco3)c2c2ccncc12
62.7

input: Return reported Percentage cell growth. Input compound: Nc1nc2c(c3ccncc13)C(c1ccc(Br)cc1)Cc1ccncc1-2 (stereo not shown)
output: 64.7

---

Below, each of the compounds is paired with its reported Percentage cell growth value.
System: T-47D
assayRemarks: NCI in vitro anti-tumor screening, 1 μM, SRB
Format: cell-based, human
conditionNotes: c = 1 μM; T-47D (Breast cancer); two days
I only need the number, in %, no unit after it.

COc1cc(-c2cc3ccncc3c3nc(N)c4cnccc4c23)cc(OC)c1OC
36

input: Return reported Percentage cell growth. Input compound: Nc1nc2c3cnccc3cc(-c3ccco3)c2c2ccncc12
output: 48.4

input: Return reported Percentage cell growth. Input compound: COc1cccc(-c2cc3ccncc3c3nc(N)c4cnccc4c23)c1OC
output: 97.4

input: Return reported Percentage cell growth. Input compound: Nc1nc2c(c3ccncc13)C(c1ccc(Br)cc1)Cc1ccncc1-2 (stereo not shown)
output: 84.6

---

Below, each of the compounds is paired with its reported Percentage cell growth value.
Test system: UACC-257
assayRemarks: NCI in vitro anti-tumor screening, 1 μM, SRB
Format: cell-based, human
conditionNotes: c = 1 μM; UACC-257 (Melanoma); two days
I only need the number, in %, no unit after it.

For orientation, consider the following solved cases.
COc1cc(-c2cc3ccncc3c3nc(N)c4cnccc4c23)cc(OC)c1OC
30.9
Nc1nc2c(c3ccncc13)C(c1ccc(Br)cc1)Cc1ccncc1-2 (stereo not shown)
107.8
Nc1nc2c3cnccc3cc(-c3ccco3)c2c2ccncc12
69.8

Field: next compound
input: Return reported Percentage cell growth. Input compound: COc1cccc(-c2cc3ccncc3c3nc(N)c4cnccc4c23)c1OC
output: 126.3

The measured values listed here are drawn from patent US20150099774A1.
